Target or system Cyclin-dependent kinase 2 (Homo sapiens, UniProt P24941); metric pIC50; compiled from varied reports.
API: returns pIC50 as number; meaning -log10 of concentration in mol/L.

Prompt line: I have this molecule here, Cn1cc(-c2c(Cl)cnc3[nH]c(C4CCNCC4)cc23)cn1 , and I need its recorded pIC50.
Response line: 6.57

Prompt line: Same read-out for Nc1nccc(-c2c[nH]c3nccc(O)c23)n1 ?
Response line: 5.51

Prompt line: Entry to check: CC(C)N1CCN(C(=O)c2ccnc(Nc3cc(-c4ccc5nnn(C(C)C)c5c4)ccn3)c2)CC1
Response line: 6.78
